Recorded values, source the supplement of paper PMC11061612.

- Tested on: A673 (Ewing's Sarcoma);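 also: after 72 h of two-drug dosing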
- assay_explanation: Bliss excess, mean over the matrix (fraction); higher = more synergy
Answer each item with its documented Bliss excess.
Numbers only.

molecule	measured_on	Bliss excess
CCN(CCO)CCCOc1ccc2c(Nc3cc(CC(=O)Nc4cccc(F)c4)[nH]n3)ncnc2c1 [AZD2811] + C[C@@H]1COCCN1C2=NC(=NC(=C2)C3(CC3)[S@](=N)(=O)C)C4=C5C=CNC5=NC=C4 [AZD6738] (first compound max 1 µM, 7x7, partner max 10 µM)	A673 (Ewing's Sarcoma)	-0.0587

Query molecule follows.
Ask: I would be grateful if you could share the reported Bliss excess for NC1(C(=O)N[C@@H](CCO)c2ccc(Cl)cc2)CCN(c2ncnc3[nH]ccc23)CC1 [Capivasertib] + C[C@@H]1COCCN1C2=NC(=NC(=C2)C3(CC3)[S@](=N)(=O)C)C4=C5C=CNC5=NC=C4 [AZD6738] (first compound max 10 µM, 7x7, partner max 10 µM) .
Result: 0.0077
